Origin of measurements: patent US11130741B2

Parameter MIC, tested on K. pneumoniae ATCC 43816, listed per item.

Any idea what MIC was measured for `NCCNC(=O)c1ccc2c(c1)Sc1cc(C(F)(F)F)cc(NC3CCN(CCN)CC3)c1N2` ?
128 µg/mL

Any idea what MIC was measured for `CC1(C)CCCN(c2ccc3c(c2)Sc2cc(C(F)(F)F)cc(NC4CCN(CCN)CC4)c2N3)C1.Cl.Cl` ?
4 µg/mL

Any idea what MIC was measured for NC1CCCC(CNc2cc(C(F)(F)F)cc3c2Nc2ccccc2S3)C1 (centres unmarked) ?
32 µg/mL

Any idea what MIC was measured for `CN(C)CCCN1c2ccccc2Sc2cc(-c3cc4cc(C#N)ccc4[nH]3)ccc21` ?
> 128 µg/mL

Any idea what MIC was measured for `NCCCN1c2ccc(-c3cc4ccccc4[nH]3)cc2Sc2cc(C(F)(F)F)ccc21` ?
32 µg/mL

Any idea what MIC was measured for `Nc1cc(C(F)(F)F)cc2c1N(CCCn1ccnc1)c1ccccc1S2` ?
> 128 µg/mL

Any idea what MIC was measured for `CNCCCN1c2ccccc2Sc2cc(-c3cc4ccccc4[nH]3)ccc21` ?
128 µg/mL

Any idea what MIC was measured for Cl.NC1CCCC(CNc2cc(C(F)(F)F)cc3c2Nc2ccc(N4CCCC4)cc2S3)C1 (centres unmarked) ?
8 µg/mL

###

Please respond with reported log10 MIC for every item in the list.
- System: Staphylococcus aureus subsp. aureus (ATCC29213)
- MEASUREMENT_PROTOCOL: MIC, broth microdilution (CLSI), Staphylococcus aureus subsp. aureus ATCC29213
- Type: cell-based
- CONDITION_INFO: ATCC29213, Table 15, read-out: S. aureus ("wound") (MIC)
The figures below represent log10 of MIC, where MIC is stated in µg/mL.

Any idea what log10 MIC was measured for `CN(C)C1CCN(c2ccc3c(c2)Sc2cc(C(F)(F)F)cc(NC4CCN(CCN)CC4)c2N3)CC1.Cl.Cl` ?
1.51

Any idea what log10 MIC was measured for `Cl.NCCCNc1cc(C(F)(F)F)cc2c1Nc1ccc(N3CCCC3)cc1S2` ?
0.60

Any idea what log10 MIC was measured for `CCOC(=O)c1ccc2c(c1)Sc1cc(Br)ccc1N2CCCN` ?
0.60

Any idea what log10 MIC was measured for `CC(=O)Nc1cc(C(F)(F)F)cc2c1Nc1ccc(N3CCCC3)cc1S2.Cl` ?
1.20

Any idea what log10 MIC was measured for CC1CCCN(c2ccc3c(c2)Sc2cc(C(F)(F)F)cc(NC4CCN(CCN)CC4)c2N3)C1.Cl.Cl (stereo not shown) ?
0.30

Any idea what log10 MIC was measured for CC1CC(C)CN(c2ccc3c(c2)Nc2c(NC4CCN(CCN)CC4)cc(C(F)(F)F)cc2S3)C1.Cl (stereo not shown) ?
1.20

Any idea what log10 MIC was measured for `Cl.NCCN1CCC(Nc2cc(C(F)(F)F)cc3c2Nc2cc(Br)ccc2S3)CC1` ?
0.60

Any idea what log10 MIC was measured for CN(C)C1CCN(c2ccc3c(c2)Sc2cc(C(F)(F)F)cc(NC4CCN(CCN)CC4)c2N3)C1.Cl.Cl (stereo not shown) ?
0.90

Any idea what log10 MIC was measured for CC1CN(c2ccc3c(c2)Sc2cc(Br)ccc2N3CCCN)CC(C)O1.Cl (stereo not shown) ?
1.20

Any idea what log10 MIC was measured for `CCOC(=O)c1ccc2c(c1)Sc1cc(-c3cc4ccccc4[nH]3)ccc1N2CCCN` ?
0.30

Any idea what log10 MIC was measured for `Cl.Cl.NCCN1CCC(Nc2cc(C(F)(F)F)cc3c2Nc2ccc(N4CCC5(CCCC5)C4)cc2S3)CC1` ?
0.00

Any idea what log10 MIC was measured for CC1CC(C)N1c1ccc2c(c1)Sc1cc(C(F)(F)F)cc(NC3CCN(CCN)CC3)c1N2.Cl (stereo not shown) ?
0.30

Any idea what log10 MIC was measured for CC1CC(C)CN(c2ccc3c(c2)Sc2cc(N4CCN(CCN)CC4)ccc2N3CCCN)C1.Cl.Cl.Cl.Cl (stereo not shown) ?
1.51

Any idea what log10 MIC was measured for `Cl.NCCN1CCC(Nc2cc(C(F)(F)F)cc3c2Nc2ccc(N4CCC4)cc2S3)CC1` ?
0.60

Any idea what log10 MIC was measured for `CCN(C)c1ccc2c(c1)Sc1cc(C(F)(F)F)cc(NC3CCN(CCN)CC3)c1N2.Cl.Cl` ?
0.60

Any idea what log10 MIC was measured for COC1CCN(c2ccc3c(c2)Sc2cc(C(F)(F)F)cc(NC4CCN(CCN)CC4)c2N3)C1.Cl.Cl (stereo not shown) ?
0.90

Any idea what log10 MIC was measured for `NCCN1CCC(Nc2cc(C(F)(F)F)cc3c2Nc2ncccc2S3)CC1` ?
0.90

Any idea what log10 MIC was measured for `Cl.Cl.Cl.NCCC1CCN(c2ccc3c(c2)Sc2cc(C(F)(F)F)cc(NC4CCN(CCN)CC4)c2N3)CC1` ?
0.90

Any idea what log10 MIC was measured for `CC1(C)CCN(c2ccc3c(c2)Sc2cc(C(F)(F)F)cc(NC4CCN(CCN)CC4)c2N3)C1.Cl` ?
0.00

Any idea what log10 MIC was measured for CC1CCCCN1c1ccc2c(c1)Sc1cc(C(F)(F)F)cc(NC3CCN(CCN)CC3)c1N2.Cl.Cl.Cl (stereo not shown) ?
0.60

Any idea what log10 MIC was measured for CC1CC(C)CN(c2ccc3c(c2)Sc2cc(C(F)(F)F)cc(NCCCNCCN)c2N3)C1.Cl (stereo not shown) ?
0.60

Any idea what log10 MIC was measured for `Cl.Cl.NCCN1CCC(Nc2cc(C(N)=O)cc3c2Nc2ccccc2S3)CC1` ?
2.11

Any idea what log10 MIC was measured for Cl.NCCNCCCNc1cc(C(F)(F)F)cc2c1Nc1ccc(N3CC4CCC3C4)cc1S2 (stereo not shown) ?
0.60

Any idea what log10 MIC was measured for `Cl.Cl.NCCN1CCC(Nc2cc(C(F)(F)F)cc3c2Nc2ccc(N4CCc5ccccc54)cc2S3)CC1` ?
0.90

Any idea what log10 MIC was measured for `Cl.Cl.NCCN1CCC(Nc2cc(C(F)(F)F)cc3c2Nc2ccc(N4CCC(N)CC4)cc2S3)CC1` ?
1.20

Any idea what log10 MIC was measured for `Cl.Cl.Cl.NCCCN1c2ccc(N3CCCC3)cc2Sc2cc(N3CCN(CCN)CC3)ccc21` ?
1.20

Any idea what log10 MIC was measured for `Cl.Cl.NCCN1CCC(Nc2cc(C(F)(F)F)cc3c2Nc2ccc(C4CCCC4)cc2S3)CC1` ?
0.00

Any idea what log10 MIC was measured for FC(F)(F)c1cc(NC2CC3CCC(C2)N3)c2c(c1)Sc1ccccc1N2 (stereo not shown) ?
0.90

Any idea what log10 MIC was measured for `Cl.Cl.NCCNCCC(=O)Nc1cc(C(F)(F)F)cc2c1Nc1ccc(N3CCCC3)cc1S2` ?
1.51

Any idea what log10 MIC was measured for `Cl.NCCNCCCNc1cc(C(F)(F)F)cc2c1Nc1ccccc1S2` ?
1.20
